assay: soluble on expression in E. coli; label from the status in PepcDB or PDB records
Parameter measured: soluble on expression in E. coli

residue_codes=EQIVAAYDNSLLYTDHFLVRTIGMLRDMSDYDTAMIYLSDHGESLGEKGLYLHGMPYAIAPVEQTRVPMVIWFSKQFVQSRQIDLNCVHQRARQYADHDNLFSSVLGLMQVKTALYERPHDLFATCEK obs_value="not soluble"
residue_codes=MKFSVLTLFPQLVWPYFEDSILKRALEKNLFELEVLNLRDFSANKYQKADHTLIGGGAGQILDPEMVENALHSVKNPKHTIFLSAVGKPFKQTDAMRLAQKKHVVLVCGRYEGFDERSIELGADEVFCIGDFILTGGELGALCLIDSIARHIQGVLGNAQSLENESFENHYLEAPNFANAVFKSKEINKIPAPLEYSKGNHAKIKQLKLDLSKLRTKFYRLDLFKQHKSLEHHHHHH obs_value="not soluble"
residue_codes=MGSDKIHHHHHHMNLATPSQMTAASIETFDATSCAAFSACYPETPHKLVHRLRDHPLLQLDALAALGEELPAHSVEYNRADLPIGLNGGKAPPNGIGIGETIRNIASTGSWAALKNVEQVPAYAALLGELLEGLRPTIEARTGAMLKPQGFVFVTSPDGVTPYHFDPEHNILLQLMGSKVMTMFPAGDSRFAPDETHETYHTGGGRELFWRDELLGHGRQWPLSPGEALYVPVMSPHFVTNGPSPSVSLSITWRSEWSFAEADARAFNGLLRSMGLKPGAPRRWPASNRAKAMCWRLYGKVRGLR obs_value="not soluble"
residue_codes=MSEELPNITTSEKKSFLQSLFSCLFQSEPKNREDLVEVIRDSLENELIDNDTKEMMEGVMEISELRVRDIMIPRPQIVYIDANLPLEACVDLIIESAHSRFPVILDDGKDNIQGMLLAKDLLKYLRSDSAPFDMQKMLRPAVIVPESKRVDRMLKEFRSERFHMAIVVDEFGAVSGLVTIEDILEQIVGDIEDEFDEEEIEPIRQLSRHTYAVSALTDIEKFNAVFATDFVDEEVDTIGGLVMQAFSHLPQRGEQVNLHGIDFKVTSADSRRLIQLRVTVSDEQLEQMERITDLEE obs_value="not soluble"
residue_codes=MSLTQVHFTLKSEEIQSIIEYSVKDDVSKNILTTVFNQLMENQRTEYIQAKEYERTENRQSQRNGYYERSFTTRVGTLELKVPRTRDGHFSPTVFERYQRNEKALMASMLEMYVSGVSTRKVSKIVEELCGKSVSKSFVSSLTEQLEPMVNEWQNRLLSEKNYPYLMTDVLYIKVREENRVLSKSCHIAIGITKDGDREIIGFMIQSGESEETWTTFFEYLKERGLQGTELVISDAHKGLVSAIRKSFTNVSWQRCQVHFLRNIFTTIPKKNSKSFREAVKGIFKFTDINLAREAKNRLIHDYIDQPKYSKACASLDDGFEDAFQYTVQGNSHNRLKSTNLIERLNQEVRRREKIIRIFPNQTSANRLIGAVLMDLHDEWIYSSRKYINFDKEGHHHHHH obs_value=soluble
residue_codes=MGSDKIHHHHHHMITTTIFPGRYVQGAGAINILEEELSRFGERAFVVIDDFVDKNVLGENFFSSFTKVRVNKQIFGGECSDEEIERLSGLVEEETDVVVGIGGGKTLDTAKAVAYKLKKPVVIVPTIASTDAPCSALSVIYTPNGEFKRYLFLPRNPDVVLVDTEIVAKAPARFLVAGMGDALATWFEAESCKQKYAPNMTGRLGSMTAYALARLCYETLLEYGVLAKRSVEEKSVTPALEKIVEANTLLSGLGFESGGLAAAHAIHNGLTVLENTHKYLHGEKVAIGVLASLFLTDKPRKMIEEVYSFCEEVGLPTTLAEIGLDGVSDEDLMKVAEKACDKNETIHNEPQPVTSKDVFFALKAADRYGRMRKNLT obs_value=soluble
residue_codes=TTHFTVADRWGNVVSYTTTIEQLFGTGIMVPDYGVILNNELTDFDAIPGGANEVQPNKRPLSSMTPTILFKDDKPVLTVGSPGGATIISSVLQTILYHIEYGMELKAAVEEPRIYTNSMSSYRYEDGVPKDVLSKLNGMGHKFGTSPVDIGNVQSISIDHENGTFKGVADSSRNGAAIGINLKRKLEHHHHHH obs_value=soluble
residue_codes=MSHIFDASVLAPHIPSNLPDNFKVRPLAKDDFSKGYVDLLSQLTSVGNLDQEAFEKRFEAMRTSVPNYHIVVIEDSNSQKVVASASLVVEMKFIHGAGSRGRVEDVVVDTEMRRQKLGAVLLKTLVSLGKSLGVYKISLECVPELLPFYSQFGFQDDCNFMTQRF obs_value=soluble
residue_codes=MGSDKIHHHHHHMSDKFGEGRDPYLYPGLDIMRNRLNIRQQQRLEQAAYEMTALRAATIELGPLVRGLPHLRTIHRQLYQDIFDWAGQLREVDIYQGDTPFCHFAYIEKEGNALMQDLEEEGYLVGLEKAKFVERLAHYYCEINVLHPFRVGSGLAQRIFFEQLAIHAGYQLSWQGIEKEAWNQANQSGAMGDLTALQMIFSKVVSEAGESE obs_value="not soluble"
residue_codes=MAHHHHHHMAILYNRITGLKDSVYGEGLQCRILGLDEIKVFNIRIRPRVLKTMTGTKDLQMVNISLRVLFRPQTDRLPQIYREFGMDYDERILPSISNEILKAVVAEYKAEELIQKRDVVSARIYQLMQSKVSQFGLVLEDLSLVDIQFGKEFMVAVEQKQVAQQEAERFRYVVLENEQKRRAAVVRAEGEAESARLISEAIQRSGGGLLELRRIEAAVDIASKLIPMRNVTFLPGGSNMLLHMKSHQASEQAH obs_value="not soluble"
residue_codes=MSRLVLLISLVIVVASAAAPQCEVCKKVLDDVMAKVPAGDKSKPDAIGKVIREHCETTRNKENKFCFYIGALPESATSIMNEVTKPLSWSMPTEKVCLEKLKGKDAQICELKYDKPLDWKTIDLKKMRVKELKNILGEWGEVCKGCTEKAELIKRIEELKPKYVKEEL obs_value="not soluble"

====

assay: soluble on expression in E. coli; label from the status in PepcDB or PDB records
Parameter measured: soluble on expression in E. coli

residue_codes=GMTESDRDYIQSIERGFAVLLAFDAQRPNPTLAELATEAGLSRPAVRRILLTLQKLGYVAGSGGRWSLTPRVLSIGQHYSESHALIEAAMPRLLEVAEKTQESASLGVLDGADVVYAARVPVRRIMSINVSVGTRVPAYATSMGRALLAWAPADVVERVVAESTFQKLGPETIGTAAELERELAKVREQGFALTSEELEKGLISLAAPVHDAGGTVVGVVACSTSSARNTPAQFREQAVPCVLAAAAALSADMGFAG parameter_measured="soluble on expression in E. coli" obs_value=soluble
residue_codes=MAHHHHHHMNQDLDKELREALQQDKYDLQLFLRFLKSYVVSGSQPEKQLLLGILLQALPRFHTSDFSACISLISSHVQDASYIEKDIILIYDLENYLSSGNFPQFWQVWRESEGTLPARPSFEPNMRAAILTVIGCTLGHIQTKDLSVYLGLKSGEKLEEVLREAARIAGDAVQLVGADEQAVVFQKSVFNAPESDSNQELKRFSDTVTIVSL parameter_measured="soluble on expression in E. coli" obs_value=soluble
residue_codes=AIAPGRKRKLAAKTAELAPEAGEGSESTSLVGSADASASTAAGVAHTEQQEMPSGGLHESFLESIPPAASFLEELAWVESLASPSYVAYLCQMRRFDDVVAQRRLTTLQRWRQDPAYRQHVSQPIALFFLEQLCSAEFREALRHPAVAALYERQVDLYRRCYGNLLNTGESRVLR parameter_measured="soluble on expression in E. coli" obs_value=soluble
residue_codes=MGSDKIHHHHHHMGTVLIHVCCAPDLLTTIFHVRDAEFFFYNPNIQPLSEYEKRREAVDKVANHFSLNVRYGEYSTEEIRKWYTAVKDYKDLGEGSKRCERCISFLLERTAQEARKRGHESFSTTLLASPRKNLPMIENIGKTIEEKYGVKFFFKNFRKGGAYQEGVRLSKELGIYRQNYCGCVFSLLERREKHAEISRKRGHM parameter_measured="soluble on expression in E. coli" obs_value="not soluble"
residue_codes=MGSDKIHHHHHHVSSTIWTPTAVASEAAAIRFSLWRAVEGQHAVSTMVLVDSLEEQALLEQLLEGSKPPVPASANGLHWLLFTPFRYPPPPTGSRFRGPLDPGVFYGADEIETACAELGFWRWQFLMESPSLTALDPKPQTVFKVEVDTLTVDLRSPPFTESRALWIDPKSYAATQDLARSAREANIGAIRYESVRAPNRGGCGAILTPMAFAEPQPRDAQTWWLSVSRERVLWQRDDVLQRATFAFDTKAFCE parameter_measured="soluble on expression in E. coli" obs_value="not soluble"
residue_codes=SLWASADAIQQKLADLEKRSGGRLGVALINTADDSQTLYRGDERFAMCSTGKVMAAAAVLKQSESNPEVVNKRLEIKKSDLVVWSPITEKHLQSGMTLAELSAAALQYSDNTAMNKMISYLGGPEKVTAFAQSIGDVTFRLDRTEPALNSAIPGDKRDTTTPLAMAESLRKLTLGNALGEQQRAQLVTWLKGNTTGGQSIRAGLPASWAVGDKTGAGDYGTTNDIAVIWPENHAPLVLVTYFTQPQQDAKSRKEVLAAAAKIVTEGL parameter_measured="soluble on expression in E. coli" obs_value=soluble
